// provenance: PubChem BioAssay (Tox21)

molecular target: Acetylcholinesterase (Homo sapiens); experiment: Acetylcholinesterase (AChE) small molecule antagonists: fluorescence cell-based qHTS assay (AID 1347398); conditions: SH-SY5Y cells; AChE activity; series mostly up to 115 µM; further: nearly all actives have a fitted effect of over 50% in size
Results filed as inconclusive are left out. The source made the active and inactive calls. The call rests on the fitted dose curve.
Choose one outcome from this list and give only that: active, inactive

Query: recorded result category for COc1cc2nc(N(C)CCCNC(=O)C3CCCO3)nc(N)c2cc1OC (centres undefined) in this test
active

Quick one: C=C1CCC2CC1C2(C)C (centres undefined)
inactive

Same thing, different compound: CCOc1ccccc1O
inactive

What do you get for COCCOC(=O)C1=C(C)NC(C)=C(C(=O)OC/C=C/c2ccccc2)C1c1cccc([N+](=O)[O-])c1 (centres undefined) ?
inactive

Entry CCCC(=O)OCCc1ccccc1 please
inactive

# iterate: CC1=C(CC(=O)O)c2cc(F)ccc2/C1=C\c1ccc(S(C)(=O)=O)cc1
inactive

Another: CCCCCCCC[Si](OCC)(OCC)OCC
inactive

Can you check Cc1ccc(N)cc1[N+](=O)[O-] next?
inactive

Subsequent entry: O=CN1CCCCC1
inactive

What do you get for CC1=NS(=O)(=O)c2cc(Cl)ccc2N1 ?
inactive

Also need COc1cc(NS(=O)(=O)c2ccc(N)cc2)nc(C)n1 , thanks.
inactive

O=P(O)(O)C(O)(Cc1cccnc1)P(=O)(O)O ?
inactive

Try Nc1nc(CC(=O)O)cs1 next.
inactive

CCO[Si](C)(OCC)OCC ?
inactive

Request: c1ccc(CN(CC2=NCCN2)c2ccccc2)cc1
inactive

Moving on to O=C(Nc1ccc(Cl)cc1)Nc1ccc(Cl)c(C(F)(F)F)c1
inactive

Repeat with C=C(C)C(=O)OCCCCCCCCCCOC(=O)C(=C)C
inactive

Moving on to CC(CCc1ccc2c(c1)OCO2)NN (centres undefined)
inactive

Please give the result for CN(C)C(=O)Nc1ccccc1 too.
inactive

// same read-out, input: CCO[Si](CCC1CCC2OC2C1)(OCC)OCC (centres undefined)
inactive

// next record CCC(C)C(=O)OC (centres undefined)
inactive

Then this compound: O=C1C=CCCC1
inactive

Same read-out for CC(C)=CCCC(C)O (centres undefined) ?
inactive

Another: CC(C)COC(=O)COc1ccc(Cl)cc1Cl
inactive

Record: CC(C)CC(O)CC(C)C
inactive

Another: CCCCOC(=O)CCCCC(=O)OCCCC
inactive

Entry CC(C)(C)C1(CCc2ccc(Cl)cc2)CO1 (centres undefined) please
inactive

# iterate: CCN(CC)CCc1nc(-c2ccccc2)no1
inactive

Now try CCCCCCCCCCCCCCCC/C=C/C1CC(=O)OC1=O (centres undefined) .
inactive
